# system tested: recombinant human TFPI (tissue factor pathway inhibitor) (human, UniProt P10646 29-304)
# experiment notes: cell-based or functional assay
observation type: FXa assay % of FXa alone, 2.5 nM Ab, 10 nM TFPI (%)
Respond with the bare value in %.

Problem: Name the reported FXa assay % of FXa alone, 2.5 nM Ab, 10 nM TFPI value associated with the binder clone A24 (antibody, V domains shown) VH: EVQLVESGGGLVKPGGSLRLSCAASGFTFHSYAMNWVRQAPGKGLEWVSTITTRGSYTYYADSVEGRFTISRDNAKNSLYLQMNSLRAEDTAVYYCARQDGNFLMDYWGQGTLVTVSS VL: DVVMTQTPLSLPVTLGQPASISCKSSQSLLDVDGKTYLNWLQQRPGQSPKRLIYLVSKLDSGVPDRFTGSGSGTDFTLKISRVEAEDVGVYYCWQGTHFPFTFGQGTKVEIKR
Result: 5
